- ASSAY TARGET: T1, human KLB on CHOK1-hKLB cells (human, UniProt Q86Z14 1-1044)
- T1 construct: whole, on cells; also called human KLB antigen; β-Klotho
- T1 sequence (looked up): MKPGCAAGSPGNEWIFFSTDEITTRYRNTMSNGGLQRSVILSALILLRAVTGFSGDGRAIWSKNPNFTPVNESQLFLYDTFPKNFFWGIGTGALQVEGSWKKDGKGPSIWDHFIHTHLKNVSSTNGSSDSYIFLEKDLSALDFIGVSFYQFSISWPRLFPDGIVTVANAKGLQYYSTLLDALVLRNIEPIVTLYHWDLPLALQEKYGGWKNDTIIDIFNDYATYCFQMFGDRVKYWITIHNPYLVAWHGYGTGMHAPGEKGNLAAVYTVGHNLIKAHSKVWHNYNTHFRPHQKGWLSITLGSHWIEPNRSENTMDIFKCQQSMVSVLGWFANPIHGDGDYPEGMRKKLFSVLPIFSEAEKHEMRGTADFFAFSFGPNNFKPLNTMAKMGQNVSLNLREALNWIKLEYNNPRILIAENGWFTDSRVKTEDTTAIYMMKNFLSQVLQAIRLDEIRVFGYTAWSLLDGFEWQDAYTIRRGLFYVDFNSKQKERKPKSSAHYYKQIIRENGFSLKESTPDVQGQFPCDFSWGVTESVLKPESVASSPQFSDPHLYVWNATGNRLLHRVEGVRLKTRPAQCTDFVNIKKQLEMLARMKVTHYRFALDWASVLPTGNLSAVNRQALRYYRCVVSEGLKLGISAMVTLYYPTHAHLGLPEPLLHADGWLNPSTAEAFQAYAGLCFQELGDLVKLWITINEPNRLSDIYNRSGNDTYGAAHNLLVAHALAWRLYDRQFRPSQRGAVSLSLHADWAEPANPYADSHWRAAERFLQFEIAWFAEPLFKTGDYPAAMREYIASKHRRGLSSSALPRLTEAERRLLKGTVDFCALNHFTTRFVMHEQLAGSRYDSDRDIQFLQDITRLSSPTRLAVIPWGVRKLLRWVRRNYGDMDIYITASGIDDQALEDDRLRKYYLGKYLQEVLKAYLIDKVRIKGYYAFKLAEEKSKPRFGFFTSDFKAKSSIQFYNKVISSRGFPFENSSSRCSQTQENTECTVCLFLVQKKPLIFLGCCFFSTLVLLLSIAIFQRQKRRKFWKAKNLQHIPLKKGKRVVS
- PROCEDURE DETAILS: flow cytometry on CHOK1-hKLB cells
- Text: The above heavy chain variable regions were fused to the heavy chain constant region (set forth in SEQ ID NO: 22) and the light chain variable regions were fused to the light chain constant region (set forth in SEQ ID NO: 23) to construct anti-KLB antibodies, and the binding activity of the obtained antibodies for CHOK1-hKLB was detected (see Test Example 2 of the present disclosure for the experimental method). […]
pEC50: −log10 of the molar value.
REPORTED PROPERTY: pEC50

{"BINDER": "hAb99-9 (antibody, human IgG1, kappa, L234A L235A, V domains shown, humanized mAb-99: hAb99VH3 + hAb99VL1; human IgG1 (L234A, L235A) / kappa constant regions) VH: EVQLVQSGAEVKKPGASVKVSCKTSGYTFTNYGINWVRQAPGQGLEWMGYIYIGNGDIEYNAKFKGRVTITSDTSASTAYMELSSLRSEDTAVYFCARGRGLGHFDVWGQGTTVTVSS VL: DIQMTQSPSSLSASVGDRVTITCRASKSISKFLAWYQQKPGKANKLLIYSGSTLQSGVPSRFSGSGSGTDFTLTISSLQPEDFATYYCQQHNEYPWTFGGGTKVEIKR", "REPORTED PROPERTY": "pEC50", "READOUT NUMBER": 9.33}
{"BINDER": "hAb18-11 (antibody, human IgG1, kappa, L234A L235A, V domains shown, humanized mAb-18: hAb18VH1 + hAb18VL2-5; human IgG1 (L234A, L235A) / kappa constant regions) VH: EVQLVQSGAEVKKPGASVKVSCKASGYTFTDYAMHWVRQAPGQRLEWMGVISTYSGTTNYNQNFKGRVTITVDKSASTAYMELSSLRSEDTAVYYCARSGPLDYWGQGTTVTVSS VL: ENVLTQSPDFQSVTPKEKVTITCRASSSVTSSYLHWYQQKPDQSPKLWIYSTSQLASGVPSRFSGSGSGTDYTLTINSLEAEDAATYYCQQYSGYPLTFGQGTKLEIKR", "REPORTED PROPERTY": "pEC50", "READOUT NUMBER": 8.57}
{"BINDER": "hAb18-15 (antibody, human IgG1, kappa, L234A L235A, V domains shown, humanized mAb-18: hAb18VH1 + hAb18VL2-9; human IgG1 (L234A, L235A) / kappa constant regions) VH: EVQLVQSGAEVKKPGASVKVSCKASGYTFTDYAMHWVRQAPGQRLEWMGVISTYSGTTNYNQNFKGRVTITVDKSASTAYMELSSLRSEDTAVYYCARSGPLDYWGQGTTVTVSS VL: ENVLTQSPDFQSVTPKEKVTITCRVSSSVSSSYLHWYQQKPDQSPKLWIYSTSNLASGVPSRFSGSGSGTDYTLTINSLEAEDAATYYCQQYSGYPLTFGQGTKLEIKR", "REPORTED PROPERTY": "pEC50", "READOUT NUMBER": 8.72}
